Test system: Alopecurus myosuroides (ALOMY)
PROCEDURE_DETAILS: Post-emergence herbicidal glasshouse test on Alopecurus myosuroides
Type: in vivo
SETUP_CONDITIONS: post-emergence; 1000 g/h; evaluated after 13 days
molecules and their reported POST Application ALOMY herbicidal damage (five point scale)

| COMPOUND | ASSAY_VALUE |
| --- | --- |
| Cn1ncc(-c2ccc(S(C)(=O)=O)c(C3=NOCC3)c2Cl)c(O)c1=O | 5 (5=80-100% damage) |
| Cc1ccc(-c2c(C(F)(F)F)ccn(-c3cnn(C)c(=O)c3O)c2=O)cc1 | 3 (3=40-59% damage) |
| Cn1ncc(-c2cccn(-c3cccc(F)c3)c2=O)c(O)c1=O | 1 (1=0-19% damage) |

Request: Quick check: POST Application ALOMY herbicidal damage (five point scale) of `Cn1ncc(-c2ccc(COCC(F)(F)F)cc2S(C)(=O)=O)c(O)c1=O` ?
Result: 3 (3=40-59% damage)

Request: Quick check: POST Application ALOMY herbicidal damage (five point scale) of `Cn1ncc(-c2cc3cc(F)cnc3n(-c3ccsc3)c2=O)c(O)c1=O` ?
Result: 2 (2=20-39% damage)

Request: Quick check: POST Application ALOMY herbicidal damage (five point scale) of `COc1ccc(-n2cccc(-c3cnn(C)c(=O)c3O)c2=O)cc1` ?
Result: 3 (3=40-59% damage)

Request: Quick check: POST Application ALOMY herbicidal damage (five point scale) of `CS(=O)(=O)c1ccccc1-c1cnn(CC(F)F)c(=O)c1O` ?
Result: 5 (5=80-100% damage)

Request: Quick check: POST Application ALOMY herbicidal damage (five point scale) of `COc1cc(-c2c(C(F)(F)F)ccn(-c3cnn(C)c(=O)c3O)c2=O)cc(OC)c1OC` ?
Result: 5 (5=80-100% damage)

----------
Test system: Amaranthus retoflexus (AMARE)
PROCEDURE_DETAILS: Pre-emergence herbicidal glasshouse test on Amaranthus retoflexus
Type: in vivo
SETUP_CONDITIONS: pre-emergence; 1000 g/h; evaluated after 13 days
compounds and their reported PRE Application AMARE herbicidal damage (five point scale)

Use the examples below as a reference point.
| COMPOUND | ASSAY_VALUE |
| --- | --- |
| COCCOc1c(S(C)(=O)=O)ccc(-c2cnn(C)c(=O)c2O)c1Cl | 5 (5=80-100% damage) |
| Cc1ccc(-c2c(C(F)(F)F)ccn(-c3cnn(C)c(=O)c3O)c2=O)cc1 | 5 (5=80-100% damage) |
| COc1ccc(Cn2ncc(-c3ccc(S(C)(=O)=O)c(C4=NOCC4)c3C)c(O)c2=O)cc1 | 1 (1=0-19% damage) |
| Cn1ncc(-c2ccc(S(=O)(=O)Cc3ccccc3)cc2S(C)(=O)=O)c(O)c1=O | 5 (5=80-100% damage) |
| CCCS(=O)(=O)Oc1c(-c2ccc(C(F)(F)F)cc2S(C)(=O)=O)cnn(C)c1=O | 5 (5=80-100% damage) |

Request: Quick check: PRE Application AMARE herbicidal damage (five point scale) of `CCn1ncc(-c2c(Cl)cccc2Cl)c(O)c1=O` ?
Result: 1 (1=0-19% damage)

Request: Quick check: PRE Application AMARE herbicidal damage (five point scale) of `Cn1ncc(-c2ccccc2S(=O)(=O)C(F)(F)F)c(O)c1=O` ?
Result: 5 (5=80-100% damage)

Request: Quick check: PRE Application AMARE herbicidal damage (five point scale) of `COCc1nc(C(F)(F)F)ccc1-c1cnn(C)c(=O)c1O` ?
Result: 5 (5=80-100% damage)

Request: Quick check: PRE Application AMARE herbicidal damage (five point scale) of `Cc1cc(-c2cnn(C)c(=O)c2O)c(=O)n(-c2ccsc2)c1` ?
Result: 5 (5=80-100% damage)

Data credit: patent US9693556B2
